targetDesc: T1, Monomeric human CD48-mmH (human)
T1 chain: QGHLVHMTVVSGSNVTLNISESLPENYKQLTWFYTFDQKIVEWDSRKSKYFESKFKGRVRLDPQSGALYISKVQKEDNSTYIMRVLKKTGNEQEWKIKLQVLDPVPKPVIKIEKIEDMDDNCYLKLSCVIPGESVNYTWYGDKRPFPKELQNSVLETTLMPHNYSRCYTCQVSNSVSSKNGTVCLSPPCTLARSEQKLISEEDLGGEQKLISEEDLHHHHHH
experimentDescription: SPR (Biacore), antibody captured by anti-Fc, CD48 in solution, 37 C
endpointName: kon (M⁻¹ s⁻¹)
Entry rule: numbers only, all in M⁻¹ s⁻¹.

The following binders have reported results that may help.
>  <binder>
H4H1781P (antibody, human IgG4, V domains shown, Human IgG4 Fc (H4H)) VH: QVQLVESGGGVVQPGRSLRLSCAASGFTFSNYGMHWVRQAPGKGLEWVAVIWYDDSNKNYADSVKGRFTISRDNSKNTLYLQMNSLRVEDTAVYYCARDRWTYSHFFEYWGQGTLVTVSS VL: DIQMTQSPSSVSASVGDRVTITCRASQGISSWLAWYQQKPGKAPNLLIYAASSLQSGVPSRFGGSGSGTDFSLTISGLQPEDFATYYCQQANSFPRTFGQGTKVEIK

>  <kon / M⁻¹ s⁻¹>
226000

$$$$
>  <binder>
H2M1707N (antibody, V domains shown, Human variable domains, mouse IgG2 Fc (H2M)) VH: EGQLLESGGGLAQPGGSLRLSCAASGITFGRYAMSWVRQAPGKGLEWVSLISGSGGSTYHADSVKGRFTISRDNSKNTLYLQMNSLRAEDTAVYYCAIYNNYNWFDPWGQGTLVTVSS VL: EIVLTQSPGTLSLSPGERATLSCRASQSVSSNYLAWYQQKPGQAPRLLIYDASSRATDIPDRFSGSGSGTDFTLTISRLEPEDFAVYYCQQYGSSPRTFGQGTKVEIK

>  <kon / M⁻¹ s⁻¹>
214000

$$$$
>  <binder>
H4H1774P (antibody, human IgG4, V domains shown, Human IgG4 Fc (H4H)) VH: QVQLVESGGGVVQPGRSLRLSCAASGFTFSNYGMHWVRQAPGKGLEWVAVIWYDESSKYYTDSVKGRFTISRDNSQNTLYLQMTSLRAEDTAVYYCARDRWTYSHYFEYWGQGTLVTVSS VL: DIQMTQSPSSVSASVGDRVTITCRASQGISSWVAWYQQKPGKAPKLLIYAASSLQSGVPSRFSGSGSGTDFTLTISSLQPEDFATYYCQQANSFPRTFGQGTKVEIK

>  <kon / M⁻¹ s⁻¹>
130000

$$$$
>  <binder>
H4H1771P (antibody, human IgG4, V domains shown, Human IgG4 Fc (H4H)) VH: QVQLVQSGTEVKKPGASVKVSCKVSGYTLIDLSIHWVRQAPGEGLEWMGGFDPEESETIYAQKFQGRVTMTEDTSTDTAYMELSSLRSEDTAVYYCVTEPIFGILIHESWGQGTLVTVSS VL: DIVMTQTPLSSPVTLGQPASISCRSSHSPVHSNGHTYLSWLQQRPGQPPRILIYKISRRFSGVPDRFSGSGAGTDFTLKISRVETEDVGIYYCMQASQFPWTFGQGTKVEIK

>  <kon / M⁻¹ s⁻¹>
1.12e+06

$$$$

The record that follows has no kon shown yet.
Write down kon measured for item H2M1713N (antibody, mouse IgG2, V domains shown, Human variable domains, mouse IgG2 Fc (H2M)) VH: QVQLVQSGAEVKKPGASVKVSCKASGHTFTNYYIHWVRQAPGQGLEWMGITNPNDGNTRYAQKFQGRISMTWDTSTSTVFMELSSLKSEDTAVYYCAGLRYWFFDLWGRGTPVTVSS VL: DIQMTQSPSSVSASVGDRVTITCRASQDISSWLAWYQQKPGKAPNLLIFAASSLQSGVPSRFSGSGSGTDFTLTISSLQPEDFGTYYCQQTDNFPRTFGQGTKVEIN 235000

This collection of values is drawn from patent US20130230533A1.
